# Tested on: Saccharomyces cerevisiae BY4741 SeMeCo community
# ASSAY_INFO: z-score of subpopulation abundance vs DMSO median, subpopulation auxotrophic for H; higher = larger share of this subpopulation than in DMSO controls
# MEASUREMENT_CONTEXT: 10 µM; 24 h; SM minimal medium; subpopulation (auxotrophy): H
Structures can show the parent of a compound that is named as a salt.
READOUT_KIND: z-score of subpopulation abundance

INSERT INTO measurements (molecule, measurement) VALUES
  ('O=c1ccn(C2CC(O)C(CO)O2)c(=O)[nH]1 (stereo unspecified)', 0.07),
  ('CN[C@H](CC(C)C)C(=O)N[C@H]1C(=O)N[C@@H](CC(N)=O)C(=O)N[C@H]2C(=O)N[C@H]3C(=O)N[C@H](C(=O)N[C@H](C(=O)O)c4cc(O)cc(O)c4-c4cc3ccc4O)[C@H](O)c3ccc(c(Cl)c3)Oc3cc2cc(c3O[C@@H]2O[C@H](CO)[C@@H](O)[C@H](O)[C@H]2O[C@H]2C[C@](C)(N)[C@H](O)[C@H](C)O2)Oc2ccc(cc2Cl)[C@H]1O [Vancomycin HCl]', -0.1),
  ('COc1cc(Cc2cnc(N)nc2N)cc(OC)c1OC', -0.5),
  ('CO/N=C(\C(=O)N[C@@H]1C(=O)N2C(C(=O)O)=CCS[C@H]12)c1csc(N)n1 [Ceftizoxime sodium]', -1.54),
  ('COCC(=O)Nc1cc(Sc2ccccc2)ccc1N=C(NC(=O)OC)NC(=O)OC', 0.91),
  ('CC(C)C(=O)Oc1ccc(CO)cc1[C@H](CCN(C(C)C)C(C)C)c1ccccc1 [Fesoterodine Fumarate]', -1.08);

* * *

# Tested on: Saccharomyces cerevisiae BY4741 SeMeCo community
# ASSAY_INFO: z-score of subpopulation abundance vs DMSO median, subpopulation auxotrophic for H; higher = larger share of this subpopulation than in DMSO controls
# MEASUREMENT_CONTEXT: 10 µM; 24 h; SM minimal medium; subpopulation (auxotrophy): H
Where a name gives a salt, the structure may show the parent alone.
READOUT_KIND: z-score of subpopulation abundance

INSERT INTO assay_data (molecule, measurement) VALUES
  ('CO/N=C(\C(=O)N[C@@H]1C(=O)N2C(C(=O)O)=C(CSC(=O)c3ccco3)CS[C@H]12)c1csc(N)n1 [Ceftiofur HCl]', -0.05),
  ('CCOC(=O)C1=C(COCCN)NC(C)=C(C(=O)OC)C1c1ccccc1Cl (centres undefined) [Amlodipine Besylate]', 3.81),
  ('C[C@@H](c1nc(-c2ccc(C#N)cc2)cs1)[C@](O)(Cn1cncn1)c1cc(F)ccc1F [Isavuconazole]', 15.6),
  ('O=C1c2cccc3c2[C@H](CCC3)CN1[C@@H]1CN2CCC1CC2 [Palonosetron]', -0.77),
  ('COc1ccccc1OCC(O)CN1CCN(CC(=O)Nc2c(C)cccc2C)CC1 (centres undefined) [Ranolazine 2HCl]', 0.04),
  ('C=C1CCN([C@H](C)[C@](O)(Cn2cncn2)c2ccc(F)cc2F)CC1 [Efinaconazole]', 11.9),
  ('CC(=O)O[C@H]1C[C@@]2(C)[C@@H](C[C@@H](O)[C@H]3[C@@]4(C)CC[C@@H](O)[C@@H](C)[C@@H]4CC[C@@]32C)/C1=C(\CCC=C(C)C)C(=O)O [Fusidate Sodium]', 1.44),
  ('C[C@@H](O)[C@H]1C(=O)N2C(C(=O)O)=C(S[C@@H]3CN[C@H](C(=O)N(C)C)C3)[C@H](C)[C@H]12 [Meropenem]', -0.03),
  ('CN1C2CCCC1CC(NC(=O)c1nn(C)c3ccccc13)C2 (centres undefined) [Granisetron]', -1.03),
  ('CC(=O)NC[C@H]1CN(c2ccc(N3CCOCC3)c(F)c2)C(=O)O1 [Linezolid]', -0.56),
  ('CO[C@H]1C[C@@H]2CC[C@@H](C)[C@@](O)(O2)C(=O)C(=O)N2CCCC[C@H]2C(=O)O[C@H]([C@H](C)C[C@@H]2CC[C@@H](OC(=O)C(C)(CO)CO)[C@H](OC)C2)CC(=O)[C@H](C)/C=C(\C)[C@@H](O)[C@@H](OC)C(=O)[C@H](C)C[C@H](C)/C=C/C=C/C=C/1C', 13.5),
  ('O=C(O)Cc1ccccc1Nc1c(Cl)cccc1Cl [Diclofenac Diethylamine]', -1.31),
  ('CCN(CC)CCOC(=O)c1ccc(N)cc1 [Procaine]', -0.4),
  ('CO/N=C(\C(=O)N[C@@H]1C(=O)N2C(C(=O)O)=C(COC(C)=O)CS[C@H]12)c1csc(N)n1 [Cefotaxime sodium]', -0.66),
  ('Clc1ccc(C(Cn2ccnc2)OCc2c(Cl)cccc2Cl)c(Cl)c1 (centres undefined) [Isoconazole nitrate]', 21),
  ('N#CC(c1ccc(Cl)cc1)c1c(Cl)cc(-n2ncc(=O)[nH]c2=O)cc1Cl (centres undefined) [Diclazuril]', -0.16),
  ('CC(C(=O)O)c1ccc(C(=O)c2cccs2)cc1 (centres undefined) [Suprofen]', -0.25),
  ('CC1(C)S[C@@H]2[C@H](NC(=O)[C@H](N)c3ccccc3)C(=O)N2[C@H]1C(=O)OCOC(=O)[C@@H]1N2C(=O)C[C@H]2S(=O)(=O)C1(C)C [Sultamicillin]', 1.56),
  ('NC(=O)C(c1ccccc1)(c1ccccc1)[C@@H]1CCN(CCc2ccc3c(c2)CCO3)C1 [Darifenacin HBr]', -1.43),
  ('Clc1ccc(CCC(Cn2ccnc2)Sc2c(Cl)cccc2Cl)cc1 (centres undefined) [Butoconazole]', 36.2),
  ('CCn1cc(C(=O)O)c(=O)c2cc(F)c(N3CCN(C)CC3)cc21 [Pefloxacin Mesylate]', -0.3),
  ('Cc1cc(O)c(C(=O)N[C@@H](C(=O)N[C@@H]2C(=O)N3C(C(=O)O)=C(CSc4nnnn4C)CS[C@H]23)c2ccc(O)cc2)cn1 [Cefpiramide sodium]', -0.05),
  ('CC(=O)[C@@]1(O)CC[C@H]2[C@@H]3C[C@H](C)C4=CC(=O)CC[C@]4(C)[C@H]3CC[C@@]21C [Medroxyprogesterone]', -0.26),
  ('N#Cc1ccc(Oc2ccc3c(c2)COB3O)cc1 [Crisaborole (AN2728)]', 7.63),
  ('COc1ccnc(C[S+]([O-])c2nc3cc(-n4cccc4)ccc3[nH]2)c1C (centres undefined) [Ilaprazole sodium]', 5.12),
  ('CC1(C)S[C@@H]2[C@H](NC(=O)Cc3ccccc3)C(=O)N2[C@H]1C(=O)O.CCN(CC)CCOC(=O)c1ccc(N)cc1 [Penicillin G Procaine]', 1.75),
  ('CC(C)COCC(CN(Cc1ccccc1)c1ccccc1)N1CCCC1 (centres undefined) [Bepridil hydrochloride]', 1.08),
  ('COC(=O)Nc1nc2cc(C(=O)c3ccccc3)ccc2[nH]1 [Mebendazole]', 1.06),
  ('C=C1c2cccc(O)c2C(O)=C2C(=O)[C@]3(O)C(O)=C(C(N)=O)C(=O)[C@@H](N(C)C)[C@@H]3[C@@H](O)[C@H]12 [Methacycline HCl]', 2.58);

* * *

# Tested on: Saccharomyces cerevisiae BY4741 SeMeCo community
# ASSAY_INFO: z-score of subpopulation abundance vs DMSO median, subpopulation auxotrophic for U; higher = larger share of this subpopulation than in DMSO controls
# MEASUREMENT_CONTEXT: 10 µM; 24 h; SM minimal medium; subpopulation (auxotrophy): U
Structures can show the parent of a compound that is named as a salt.
Label scheme for z-score of subpopulation abundance: class 0 = under 0.07, class 1 = from 0.07 up to 0.5, class 2 = 0.5 and over

INSERT INTO measurements (compound, study_target, assigned_class) VALUES
  ('CC[C@@H]1C(=O)OC[C@@H]1Cc1cncn1C [Pilocarpine HCl]', 'Saccharomyces cerevisiae BY4741 SeMeCo community', 'class 0'),
  ('O=C(O)c1cc(O)c2c(c1)[C@H]([C@H]1c3cc(C(=O)O)cc(O)c3C(=O)c3c(O[C@@H]4O[C@H](CO)[C@@H](O)[C@H](O)[C@H]4O)cccc31)c1cccc(O[C@@H]3O[C@H](CO)[C@@H](O)[C@H](O)[C@H]3O)c1C2=O [Sennoside A]', 'Saccharomyces cerevisiae BY4741 SeMeCo community', 'class 2'),
  ('Cc1nnc(SCC2=C(C(=O)O)N3C(=O)[C@@H](NC(=O)Cn4cnnn4)[C@H]3SC2)s1 [Cefazolin Sodium]', 'Saccharomyces cerevisiae BY4741 SeMeCo community', 'class 1'),
  ('CC(Cc1ccc(O)c(O)c1)C(C)Cc1ccc(O)c(O)c1 (configuration not stated) [Nordihydroguaiaretic acid (NDGA)]', 'Saccharomyces cerevisiae BY4741 SeMeCo community', 'class 0'),
  ('Fc1ccc([C@@H]2CCNC[C@H]2COc2ccc3c(c2)OCO3)cc1 [Paroxetine HCl]', 'Saccharomyces cerevisiae BY4741 SeMeCo community', 'class 2'),
  ('CN1CCN2c3ncccc3Cc3ccccc3C2C1 (configuration not stated) [Mirtazapine]', 'Saccharomyces cerevisiae BY4741 SeMeCo community', 'class 1'),
  ('OCCN1CCN(CCCN2c3ccccc3Sc3ccc(Cl)cc32)CC1 [Perphenazine]', 'Saccharomyces cerevisiae BY4741 SeMeCo community', 'class 1'),
  ('CC1(C)S[C@@H]2[C@H](NC(=O)Cc3ccccc3)C(=O)N2[C@H]1C(=O)O [Benzathine penicilline]', 'Saccharomyces cerevisiae BY4741 SeMeCo community', 'class 0'),
  ('CC1(C)[C@H](C(=O)O)N2C(=O)C[C@H]2S1(=O)=O [Sulbactam sodium]', 'Saccharomyces cerevisiae BY4741 SeMeCo community', 'class 2'),
  ('Nc1ccc(S(=O)(=O)NC(=O)c2ccccc2)cc1 [Sulfabenzamide]', 'Saccharomyces cerevisiae BY4741 SeMeCo community', 'class 0'),
  ('O=C1Nc2ccccc2C1=O [Isatin]', 'Saccharomyces cerevisiae BY4741 SeMeCo community', 'class 1'),
  ('Nc1ccc(S(=O)(=O)c2ccc(N)cc2)cc1 [Dapson]', 'Saccharomyces cerevisiae BY4741 SeMeCo community', 'class 0'),
  ('O=C(O)c1ccccc1C(=O)Nc1ccc(S(=O)(=O)Nc2nccs2)cc1 [Phthalylsulfathiazole]', 'Saccharomyces cerevisiae BY4741 SeMeCo community', 'class 2'),
  ('CN(C)CCOc1ccc(/C(=C(/CCCl)c2ccccc2)c2ccccc2)cc1 [Toremifene Citrate]', 'Saccharomyces cerevisiae BY4741 SeMeCo community', 'class 2'),
  ('C#CCN[C@@H]1CCc2ccccc21 [Rasagiline]', 'Saccharomyces cerevisiae BY4741 SeMeCo community', 'class 1');
